# SYSTEM_UNDER_TEST: P2Y purinoceptor 12 (Homo sapiens, UniProt Q9H244)
# Sequence (Q9H244 whole entry): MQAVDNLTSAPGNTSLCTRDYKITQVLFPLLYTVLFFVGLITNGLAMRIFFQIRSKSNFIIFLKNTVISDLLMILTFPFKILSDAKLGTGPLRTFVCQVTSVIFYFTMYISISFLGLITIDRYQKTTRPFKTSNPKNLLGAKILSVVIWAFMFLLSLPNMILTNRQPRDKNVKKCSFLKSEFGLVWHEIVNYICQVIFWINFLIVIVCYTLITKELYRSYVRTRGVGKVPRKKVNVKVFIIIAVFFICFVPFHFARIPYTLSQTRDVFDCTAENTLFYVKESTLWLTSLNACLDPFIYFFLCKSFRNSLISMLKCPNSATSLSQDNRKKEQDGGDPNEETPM
# PROTOCOL_SUMMARY: Inhibition of human P2Y12 receptor expressed in CHO cells
METRIC: Ki (nM)

COMPOUND	Ki [nM]
CCCCCOC(=O)N1CCN(C(=O)[C@H](CCC(=O)O)NC(=O)c2cc(N3CCC(C(=O)N4CCCC4)CC3)cc(-c3ccccc3)n2)CC1	2.8

1: CCCCCOC(=O)N1CCN(C(=O)[C@H](CCC(=O)O)NC(=O)c2cc(N3CCCC(OC)C3)cc(-c3ccccc3)n2)CC1 (some centres undefined)
2: CCCCOC(=O)N1CCN(C(=O)[C@H](CCC(=O)O)NC(=O)c2cc(N3CCC(CN4CCCC4=O)CC3)cc(-c3ccccc3)n2)CC1
3: CCCOC(=O)N1CCN(C(=O)[C@H](CCC(=O)O)NC(=O)c2cc(N3CCC(C(=O)N(CC)CC)CC3)cc(-c3ccccc3)n2)CC1
stdin: Output the entries ranked by Ki from maximum down to minimum. Lab note: final answer is the ordered label list.
stdout: 1, 3, 2

These measurements were taken from ChEMBL document CHEMBL1156904.
